- TEST_TARGET: pol eta core R334G R334G (Homo sapiens) (UniProt Q9Y253)
- Sequence: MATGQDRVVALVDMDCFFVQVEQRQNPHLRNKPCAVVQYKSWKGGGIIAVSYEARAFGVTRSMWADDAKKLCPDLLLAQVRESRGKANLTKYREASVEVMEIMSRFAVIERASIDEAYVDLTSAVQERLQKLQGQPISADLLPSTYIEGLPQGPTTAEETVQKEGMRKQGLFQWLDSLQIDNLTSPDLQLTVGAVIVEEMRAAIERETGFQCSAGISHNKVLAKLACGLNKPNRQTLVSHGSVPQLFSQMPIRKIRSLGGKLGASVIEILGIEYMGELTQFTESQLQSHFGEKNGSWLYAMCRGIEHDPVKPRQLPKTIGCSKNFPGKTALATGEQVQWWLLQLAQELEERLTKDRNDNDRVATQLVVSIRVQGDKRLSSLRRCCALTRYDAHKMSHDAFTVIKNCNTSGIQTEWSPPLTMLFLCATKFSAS
- EXPERIMENTAL_PROTOCOL: fluorescence polarization
- MEASUREMENT_CONDITIONS: cis-syn cyclobutane thymine dimer at T7-T8 of the 25-mer template; 50 mM HEPES-KOH pH 7.5, 10 mM potassium acetate, 2 mM beta-mercaptoethanol, 0.1 mg/mL BSA, 5 mM MgCl2; 2 nM DNA; temperature not stated
QUANTITY_NAME: Kd
Write the numeric value and follow it with the unit.

Q. Sample CACCATCCACTAC / ATGTAGTTGTAGTGGATGGTGGTAC [13-FAM-mer/25-CTD-mer] — what was its Kd?
A. 12 nM
